Tested on: Porcine Smooth Muscle Cell
PROCEDURE_DETAILS: Porcine smooth muscle cell antiproliferation, 3H thymidine incorporation
Assay type: cell-based
TEST_PARAMETERS: Sus scrofa, growth factor or serum stimulated, 24-36 h at 37° C., compound added with 3H thymidine and serum / growth factor
Can you tell me IC50 for the items I'm about to list?
All answers are understood in nM, so give the number only.

Req: Looking for the measured IC50 of CC(=O)Nc1cc(CO[C@@H]2O[C@H](Cn3cnc([N+](=O)[O-])c3)[C@@H](O[C@H]3O[C@@H]4COC(c5ccccc5)O[C@H]4[C@H](OC(C)=O)[C@H]3OC(C)=O)[C@H](OC(C)=O)[C@H]2OC(C)=O)ccc1Cl (some centres unmarked) , can you help?
Resp: 807

Req: Looking for the measured IC50 of CC(=O)Nc1cc(CO[C@@H]2O[C@H](CN3C(=O)c4ccccc4C3=O)[C@@H](O[C@H]3O[C@@H]4COC(c5ccccc5)O[C@H]4[C@H](OC(C)=O)[C@H]3OC(C)=O)[C@H](OC(C)=O)[C@H]2OC(C)=O)ccc1Cl (some centres unmarked) , can you help?
Resp: 840

Req: Looking for the measured IC50 of CC(=O)Nc1cc(CO[C@@H]2O[C@H](CI)[C@@H](O[C@H]3O[C@@H]4COC(c5ccccc5)O[C@H]4[C@H](O)[C@H]3O)[C@H](O)[C@H]2O)ccc1Cl (some centres unmarked) , can you help?
Resp: 1160

Req: Looking for the measured IC50 of CC(=O)Nc1cc(CO[C@@H]2O[C@H](CI)[C@@H](O[C@H]3O[C@@H]4COC(c5ccccc5)O[C@H]4[C@H](OC(C)=O)[C@H]3OC(C)=O)[C@H](OC(C)=O)[C@H]2OC(C)=O)ccc1Cl (some centres unmarked) , can you help?
Resp: 200

Req: Looking for the measured IC50 of CC(=O)Nc1cc(CO[C@@H]2O[C@H](CN3C(=O)c4ccccc4C3=O)[C@@H](O[C@H]3O[C@@H]4COC(c5ccccc5)O[C@H]4[C@H](O)[C@H]3O)[C@H](O)[C@H]2O)ccc1Cl (some centres unmarked) , can you help?
Resp: 1590

---

Test system: Porcine Smooth Muscle Cell
PROCEDURE_DETAILS: Porcine smooth muscle cell antiproliferation, 3H thymidine incorporation
Type: cell-based
TEST_PARAMETERS: Sus scrofa, growth factor or serum stimulated, 24-36 h at 37° C., compound added with 3H thymidine and serum / growth factor
OBSERVABLE: pIC50
Just the number, please; pIC50 means minus log10 of the concentration in mol/L.

Req: Looking for the measured pIC50 of CC(=O)Nc1cc(CO[C@@H]2O[C@H](Cn3cnc([N+](=O)[O-])c3)[C@@H](O[C@H]3O[C@@H]4COC(c5ccccc5)O[C@H]4[C@H](O)[C@H]3O)[C@H](O)[C@H]2O)ccc1Cl (stereo partly drawn) , can you help?
Resp: 5.73

Req: Looking for the measured pIC50 of CC(=O)Nc1cc(CO[C@@H]2O[C@H](Cn3cnc([N+](=O)[O-])c3)[C@@H](O[C@H]3O[C@@H]4COC(c5ccccc5)O[C@H]4[C@H](O)[C@H]3O)[C@H](O)[C@H]2O)ccc1C (stereo partly drawn) , can you help?
Resp: 4.96

Req: Looking for the measured pIC50 of CC(=O)Nc1cc(CO[C@@H]2O[C@H](CN=[N+]=[N-])[C@@H](O[C@H]3O[C@@H]4COC(c5ccccc5)O[C@H]4[C@H](O)[C@H]3O)[C@H](O)[C@H]2O)ccc1Cl (stereo partly drawn) , can you help?
Resp: 6.21

Origin of measurements: patent US6187755A
